System: IPOHE (Morningglory, Ivyleaf)
measurementDescription: Postemergence herbicidal evaluation
Type: in vivo, Ipomoea hederacea
measurementContext: postemergence, rate 0.0315 kg/ha
# IPOHE herbicidal rating values compiled below
Form field (numeric): enter value without unit.

Record excerpt, results attached:
CCOC(=O)C(c1ccc(Cl)cc1)N1C(=O)CSC1=Nc1cc(-n2c(=O)cc(C(F)(F)F)n(C)c2=O)c(F)cc1Cl (racemic)	9.0
CCOC(=O)[C@H](C)N1C(=O)CSC1=Nc1cc(-n2c(=O)cc(C(F)(F)F)n(C)c2=O)c(F)cc1Cl	9.0
CCOC(=O)CN1C(=O)C(CC(=O)OCCF)SC1=Nc1cc(-n2c(=O)cc(C(F)(F)F)n(C)c2=O)c(F)cc1Cl (stereo not drawn)	9.0

Fill in IPOHE herbicidal rating for record C=CCN1C(=O)C(CC(=O)OC(C)C(=O)OCC)SC1=Nc1cc(-n2c(=O)ccn(C)c2=O)c(F)cc1Cl (stereo not drawn)
9.0

Fill in IPOHE herbicidal rating for record CN1C(=O)C(CC(N)=O)SC1=Nc1cc(-n2c(=O)cc(C(F)(F)F)n(C)c2=O)c(F)cc1Cl (stereo not drawn)
9.0

Fill in IPOHE herbicidal rating for record COC(=O)[C@H](Cc1ccccc1)N1C(=O)CS/C1=N/c1cc(-n2c(=O)cc(C(F)(F)F)n(C)c2=O)c(F)cc1Cl
7.0

====

# Preemergence herbicidal rating ORYSAT values compiled below
Test system: ORYSAT (Rice, Tebonnet)
measurementDescription: Preemergence herbicidal evaluation
Format: in vivo, Oryza sativa, (L.) Tebonnet
measurementContext: rate 0.2500 kg/ha; rated 4-5 weeks after treatment
Form field (numeric): enter value without unit.

O=C(O)CC1SC(=Nc2cc(N3C(=O)C4=C(CCCC4)C3=O)c(F)cc2Cl)N(CC(=O)O)C1=O (centres unmarked) [Compound 48]	3.0
Cn1c(C(F)(F)F)cc(=O)n(-c2cc(N=C3SCC(=O)N3CCC(=O)O)c(Cl)cc2F)c1=O [Compound 31]	6.0
CCOP(=O)(CN1C(=O)CSC1=Nc1cc(-n2c(=O)cc(C(F)(F)F)n(C)c2=O)c(F)cc1Cl)OCC [Compound 35]	0.0
COC(=O)[C@H](Cc1ccccc1)N1C(=O)CS/C1=N/c1cc(-n2c(=O)cc(C(F)(F)F)n(C)c2=O)c(F)cc1Cl [Compound 72]	1.0
COC(=O)[C@H](Cc1ccc([N+](=O)[O-])cc1)N1C(=O)CSC1=Nc1cc(-n2c(=O)cc(C(F)(F)F)n(C)c2=O)c(F)cc1Cl [Compound 78]	0.0
CCOC(=O)CN1C(=O)C(C(=O)OCC)SC1=Nc1cc(-n2c(=O)cc(C(F)(F)F)n(C)c2=O)c(F)cc1Cl (centres unmarked) [Compound 127]	0.0
Cn1c(C(F)(F)F)cc(=O)n(-c2cc(N=C3SCC(=O)N3CCC(=O)O)c(Cl)cc2F)c1=O [Compound 30]	4.0

From here, focus on the item given below.
Fill in Preemergence herbicidal rating ORYSAT for record C=CCN1C(=O)C(CC(=O)Nc2ccccc2)SC1=Nc1cc(-n2c(=O)cc(C(F)(F)F)n(C)c2=O)c(F)cc1Cl (centres unmarked) [Compound 44]
0.0

====

# Postemergence herbicidal rating GLXMAW values compiled below
Test system: GLXMAW (Soybean, Williams)
measurementDescription: Postemergence herbicidal evaluation
Format: in vivo, Glycine max, (L.) Merr. cv Williams
measurementContext: Rate 0.0158 kg/ha
Form field (numeric): enter value without unit.

CCOC(=O)CN1C(=O)C(CC(=O)O)O/C1=N/c1cc(-n2c(=O)cc(C(F)(F)F)n(C)c2=O)c(F)cc1Cl (centres unmarked)	8.0
C#CCOC(=O)CC1SC(=Nc2cc(-n3c(=O)cc(C(F)(F)F)n(C)c3=O)c(F)cc2Cl)N(CC(=O)OCC)C1=O (centres unmarked)	8.0
CCOC(=O)COc1ccccc1CC1S/C(=N/c2cc(-n3c(=O)cc(C(F)(F)F)n(C)c3=O)c(F)cc2Cl)N(CC(=O)OCC)C1=O (centres unmarked)	5.5
Cn1c(C(F)(F)F)cc(=O)n(-c2cc(/N=C3/SCC(=O)N3CC(=O)O)c(Cl)cc2F)c1=O	5.0

From here, focus on the item given below.
Write Postemergence herbicidal rating GLXMAW of CCOC(=O)CN1CCSC1=Nc1cc(-n2nc(C)n(C(F)F)c2=O)c(F)cc1Cl ; system used: GLXMAW (Soybean, Williams)
5.0
